# Species: Rattus norvegicus
# PROTOCOL TEXT: Open TG-GATES - Regimen: Single
# Format: toxicity, organism-based, Sprague-Dawley
# Set-up: regimen Single, gender Male, age 6 weeks
# EXPERIMENTAL PARAMETERS: in vivo, po, 0 mg/kg, 9 h, tissue Plasma, route gavage, dose level Control
MEASUREMENT LABEL: K (meq/L)

{"columns": ["COMPOUND", "UNIT STRING", "READOUT VALUE"],
 "data": [
  ["CN(C)C(=N)N=C(N)N", "meq/L", 4],
  ["CN(C)CCC=C1c2ccccc2COc2ccccc21 [DOXEPIN]", "meq/L", 3.9],
  ["OCCOCCN1CCN(C(c2ccccc2)c2ccc(Cl)cc2)CC1 (centres undefined) [HYDROXYZINE]", "meq/L", 4.2],
  ["CCc1oc2ccccc2c1C(=O)c1cc(Br)c(O)c(Br)c1", "meq/L", 5],
  ["O=NN(CCCl)C(=O)NC1CCCCC1", "meq/L", 4.8],
  ["CC[C@H]1[C@@H]2C[C@H]3[C@@H]4N(C)c5ccccc5[C@]45C[C@@H]([C@@H]2[C@H]5O)N3[C@@H]1O", "meq/L", 4.9],
  ["CC1=C(CC(=O)O)c2cc(F)ccc2/C1=C\\c1ccc([S+](C)[O-])cc1 (centres undefined)", "meq/L", 4.3],
  ["ClC(Cl)(Cl)Cl [CARBON TETRACHLORIDE]", "meq/L", 3.7],
  ["CCC1(c2ccccc2)C(=O)NC(=O)NC1=O", "meq/L", 3.9]
]}

* * *

# Species: Rattus norvegicus
# PROTOCOL TEXT: Open TG-GATES - Regimen: Single
# Type: toxicity, organism-based, Sprague-Dawley
# Design: regimen Single, gender Male, age 6 weeks
# EXPERIMENTAL PARAMETERS: in vivo, po, 0 mg/kg, 9 h, tissue Kidney, route gavage, dose level Control

{"columns": ["COMPOUND", "KIDNEY_TOTAL"],
 "data": [
  ["CC(C)N(CCC(C(N)=O)(c1ccccc1)c1ccccn1)C(C)C (stereo not given) [DISOPYRAMIDE]", "2 g"],
  ["CN(C)CCC=C1c2ccccc2COc2ccccc21 [DOXEPIN]", "1.8 g"],
  ["CC[C@H]1[C@@H]2C[C@H]3[C@@H]4N(C)c5ccccc5[C@]45C[C@@H]([C@@H]2[C@H]5O)N3[C@@H]1O", "1.8 g"],
  ["CCC1(c2ccccc2)C(=O)NC(=O)NC1=O", "2 g"],
  ["CN(C)C(=N)N=C(N)N", "1.7 g"],
  ["CCc1oc2ccccc2c1C(=O)c1cc(Br)c(O)c(Br)c1", "2 g"],
  ["ClC(Cl)(Cl)Cl [CARBON TETRACHLORIDE]", "1.8 g"],
  ["OCCOCCN1CCN(C(c2ccccc2)c2ccc(Cl)cc2)CC1 (stereo not given) [HYDROXYZINE]", "1.8 g"],
  ["CC1=C(CC(=O)O)c2cc(F)ccc2/C1=C\\c1ccc([S+](C)[O-])cc1 (stereo not given)", "1.9 g"],
  ["O=NN(CCCl)C(=O)NC1CCCCC1", "1.8 g"]
]}

* * *

# Species on record: Rattus norvegicus
# PROTOCOL TEXT: Open TG-GATES - Regimen: Daily Repeat
# Type: toxicity, organism-based, Sprague-Dawley
# Set-up: regimen Daily Repeat, gender Male, age 6 weeks
# EXPERIMENTAL PARAMETERS: in vivo, po, 0 mg/kg, […], tissue Plasma, route gavage, dose level Control, time 14 day

{"columns": ["MOLECULE", "TBIL / mg/dL"],
 "data": [
  ["CCc1oc2ccccc2c1C(=O)c1cc(Br)c(O)c(Br)c1 [BENZBROMARONE]", 0.3],
  ["OCCOCCN1CCN(C(c2ccccc2)c2ccc(Cl)cc2)CC1 (stereo unspecified) [HYDROXYZINE]", 0.056],
  ["CC[C@H]1[C@@H]2C[C@H]3[C@@H]4N(C)c5ccccc5[C@]45C[C@@H]([C@@H]2[C@H]5O)N3[C@@H]1O [AJMALINE]", 0.3],
  ["CC(C)N(CCC(C(N)=O)(c1ccccc1)c1ccccn1)C(C)C (stereo unspecified) [DISOPYRAMIDE]", 0.004],
  ["ClC(Cl)(Cl)Cl [CARBON TETRACHLORIDE]", 0.1],
  ["CN(C)C(=N)N=C(N)N [METFORMIN]", 0.034],
  ["O=NN(CCCl)C(=O)NC1CCCCC1 [LOMUSTINE]", 0.3],
  ["CCCCc1oc2ccccc2c1C(=O)c1cc(I)c(OCCN(CC)CC)c(I)c1 [AMIODARONE]", 0.2],
  ["CCC1(c2ccccc2)C(=O)NC(=O)NC1=O [PHENOBARBITAL]", 0.2],
  ["CC1=C(CC(=O)O)c2cc(F)ccc2/C1=C\\c1ccc([S+](C)[O-])cc1 (stereo unspecified)", 0.044],
  ["CN(C)CCC=C1c2ccccc2COc2ccccc21 [DOXEPIN]", 0.024]
]}

* * *

Lym reference
# Species: Rattus norvegicus
# PROTOCOL TEXT: Open TG-GATES - Regimen: Single
# Type: toxicity, organism-based, Sprague-Dawley
# Parameters: regimen Single, gender Male, age 6 weeks
# EXPERIMENTAL PARAMETERS: in vivo, po, 0 mg/kg, 9 h, tissue Blood, route gavage, dose level Control

{"columns": ["COMPOUND", "Lym, %"],
 "data": [
  ["CC[C@H]1[C@@H]2C[C@H]3[C@@H]4N(C)c5ccccc5[C@]45C[C@@H]([C@@H]2[C@H]5O)N3[C@@H]1O", 79.6],
  ["CC1=C(CC(=O)O)c2cc(F)ccc2/C1=C\\c1ccc([S+](C)[O-])cc1 (stereo not given)", 81.6],
  ["ClC(Cl)(Cl)Cl [CARBON TETRACHLORIDE]", 76.6],
  ["OCCOCCN1CCN(C(c2ccccc2)c2ccc(Cl)cc2)CC1 (stereo not given) [HYDROXYZINE]", 73.4],
  ["CN(C)CCC=C1c2ccccc2COc2ccccc21 [DOXEPIN]", 77.8],
  ["CCC1(c2ccccc2)C(=O)NC(=O)NC1=O", 77],
  ["O=NN(CCCl)C(=O)NC1CCCCC1", 79.4],
  ["CCc1oc2ccccc2c1C(=O)c1cc(Br)c(O)c(Br)c1", 74.6],
  ["CC(C)N(CCC(C(N)=O)(c1ccccc1)c1ccccn1)C(C)C (stereo not given) [DISOPYRAMIDE]", 80.6],
  ["CN(C)C(=N)N=C(N)N", 73.8]
]}

* * *

The entries below are paired with their reported log10 of TBIL.
# Organism: Rattus norvegicus
# PROTOCOL TEXT: Open TG-GATES - Regimen: Single
# Type: toxicity, organism-based, Sprague-Dawley
# Design: regimen Single, gender Male, age 6 weeks
# EXPERIMENTAL PARAMETERS: in vivo, po, 0 mg/kg, 3 h, tissue Plasma, route gavage, dose level Control
MEASUREMENT LABEL: log10 of TBIL (log10 of the value in mg/dL)

{"columns": ["MOLECULE", "log10 of TBIL"],
 "data": [
  ["CC(C)N(CCC(C(N)=O)(c1ccccc1)c1ccccn1)C(C)C (stereo not given) [DISOPYRAMIDE]", -2.22],
  ["CCc1oc2ccccc2c1C(=O)c1cc(Br)c(O)c(Br)c1", -0.52],
  ["ClC(Cl)(Cl)Cl [CARBON TETRACHLORIDE]", -0.52],
  ["CC1=C(CC(=O)O)c2cc(F)ccc2/C1=C\\c1ccc([S+](C)[O-])cc1 (stereo not given)", -1.62],
  ["CCC1(c2ccccc2)C(=O)NC(=O)NC1=O", -1.00],
  ["CC[C@H]1[C@@H]2C[C@H]3[C@@H]4N(C)c5ccccc5[C@]45C[C@@H]([C@@H]2[C@H]5O)N3[C@@H]1O", -0.52],
  ["CN(C)CCC=C1c2ccccc2COc2ccccc21 [DOXEPIN]", -1.25],
  ["O=NN(CCCl)C(=O)NC1CCCCC1", -0.52],
  ["CN(C)C(=N)N=C(N)N", -1.28],
  ["OCCOCCN1CCN(C(c2ccccc2)c2ccc(Cl)cc2)CC1 (stereo not given) [HYDROXYZINE]", -1.25]
]}

* * *

molecules and their reported TERMINAL_BW
# Organism: Rattus norvegicus
# PROTOCOL TEXT: Open TG-GATES - Regimen: Single
# Format: toxicity, organism-based, Sprague-Dawley
# Design: regimen Single, gender Male, age 6 weeks
# EXPERIMENTAL PARAMETERS: in vivo, po, 0 mg/kg, 24 h, route gavage, dose level Control
MEASUREMENT LABEL: TERMINAL_BW (g)

{"columns": ["MOLECULE", "UNIT STRING", "READOUT VALUE"],
 "data": [
  ["CC(C)N(CCC(C(N)=O)(c1ccccc1)c1ccccn1)C(C)C (stereo unspecified) [DISOPYRAMIDE]", "g", 222.5],
  ["OCCOCCN1CCN(C(c2ccccc2)c2ccc(Cl)cc2)CC1 (stereo unspecified) [HYDROXYZINE]", "g", 204.1],
  ["CC1=C(CC(=O)O)c2cc(F)ccc2/C1=C\\c1ccc([S+](C)[O-])cc1 (stereo unspecified)", "g", 215.3],
  ["CN(C)CCC=C1c2ccccc2COc2ccccc21 [DOXEPIN]", "g", 214.2],
  ["ClC(Cl)(Cl)Cl [CARBON TETRACHLORIDE]", "g", 215.9],
  ["O=NN(CCCl)C(=O)NC1CCCCC1", "g", 218.2],
  ["CCc1oc2ccccc2c1C(=O)c1cc(Br)c(O)c(Br)c1", "g", 225.6],
  ["O=NN1CCOCC1", "g", 228.1],
  ["CCC1(c2ccccc2)C(=O)NC(=O)NC1=O", "g", 234.1],
  ["CC[C@H]1[C@@H]2C[C@H]3[C@@H]4N(C)c5ccccc5[C@]45C[C@@H]([C@@H]2[C@H]5O)N3[C@@H]1O", "g", 206.2],
  ["CN(C)C(=N)N=C(N)N", "g", 207.9]
]}
